B1: Azoarcus group I ribozyme (parent)
chain: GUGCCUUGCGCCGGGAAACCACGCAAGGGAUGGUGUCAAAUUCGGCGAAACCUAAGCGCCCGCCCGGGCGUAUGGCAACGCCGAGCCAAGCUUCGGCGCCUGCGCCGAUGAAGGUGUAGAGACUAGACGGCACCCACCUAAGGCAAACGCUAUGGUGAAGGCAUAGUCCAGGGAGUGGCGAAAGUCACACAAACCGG

variants of: B1; test: reverse-splicing fitness (ratio to wild type); higher = more active; in vitro selection; Mg2+ level not given
Classification field: enter yes (1) for reverse-splicing fitness values not below 0.009, no (0) for values below it.

• C82A A111G A120U A145U C150U C169A U176C = no (0)
• C82G A111G A120U A145C C150U C169U U176C = no (0)
• C82G A111G A120C A145U C169U U176G = no (0)
• C82A A111G A120G A145U C150G C169G U176G = no (0)
• A111C A145U C150G U176A = yes (1)
• C82G A111G A120C C150G C169A = yes (1)
• C82A A111U A120G A145U C150G C169A U176G = no (0)
• C82G A111C A120C A145G U176A = yes (1)
• C82G A111C A120U A145G C150A U176G = no (0)
• C82G A111G A120G C150A C169U = no (0)
• C82G A111U A120U C150A C169U U176C = no (0)
• A111U A120C A145G C169G U176A = yes (1)
• C82A A111C A145C C150A C169G U176A = yes (1)
• C82G A111C C150A = yes (1)
• C82G A111G A120U A145U C150G C169G U176G = no (0)
• C82U A111C C150A C169A U176C = yes (1)
• C82U A111G A120C A145G C150A U176A = yes (1)
• C82U A111C A120U A145U C150U C169A U176C = no (0)
• C82U A111U A120U A145G C150A C169A U176C = no (0)
• A120G A145G C150G C169A = yes (1)
• C82U A111G A120G A145C C150G C169A U176C = no (0)
• A120C C169U U176A = yes (1)
• A111C A120U C150U C169U U176C = yes (1)
• C82G A111C A120U C150A C169U U176G = no (0)
• C82U A111C A145U C150G C169U U176A = no (0)
• C82G A120C A145G C169U U176C = yes (1)
• C82G A111U A120U C150U C169U U176A = no (0)
• C82G A120U A145C C150A C169A U176C = no (0)
• A111C A120G C150A C169U U176A = yes (1)
• C82G A111C A120C A145U C150U C169G U176C = yes (1)
• C82A A111G A120G A145G C169U U176C = yes (1)
• C82A A111G A120C A145U C150U C169U U176A = yes (1)
• C82U A111U A120C C150U = yes (1)
• C82A A111G A145G C150A C169G U176A = yes (1)
• C82A A120U C150U U176G = no (0)
• C82A A111C A120U A145C C169G U176A = no (0)
• A120C A145C C169G U176C = yes (1)
• C82A A111U A120U A145C C150A C169U U176C = no (0)
• C82U A111G A120G A145C C150G C169G = no (0)
• C82G A111C A120U A145G C169G U176G = no (0)
• C82A A120U A145U C150G C169U = no (0)
• C82A A111G A120C A145U C169G = yes (1)
• C82U A120C A145U C150A U176A = yes (1)
• C82U A120U A145U C150U U176G = no (0)
• A111C A120C A145U C150U C169U U176G = no (0)
• A111C A120G A145C C150G C169G U176A = yes (1)
• C82U A120G A145U C150A C169U U176C = yes (1)
• C82A A111U A120G A145C C150A C169A = no (0)
• C82U A111G A120G C150U C169U U176G = no (0)
• A111U A120U U176A = yes (1)
• C82U A120U A145G C150A C169G U176G = no (0)
• C82G A120G A145G C169A U176C = yes (1)
• C82A A111C A120G A145C C150G C169A = no (0)
• C82G A111U A120U A145U C150G C169A = no (0)
• C82G A111U A120G A145U C150G C169A U176G = no (0)
• C82G A120C C150U U176C = yes (1)
• A120G A145C C169G = yes (1)
• A111C C150U C169A = yes (1)
• C82G A111U A120C C150U C169A U176C = yes (1)
• C82U A111G A120G A145G C150U C169U U176A = yes (1)
• C82A A111G A120U A145C C150A C169G U176G = no (0)
• C82A A111U A120U A145G C169G U176G = no (0)
• A120C A145G C150G C169G U176A = yes (1)
• C82U A111U A120G A145U C169A U176A = yes (1)
• C82A A111G A120U C169G U176C = no (0)
• C82U A111C A120U C150A = no (0)
• C82U A120G C150A C169U = no (0)
• C82G A111C A120G A145G C150A C169U U176G = no (0)
• C82A A120U A145U C150G C169A U176A = no (0)
• C82G A120G A145U C150G C169G U176C = no (0)
• C82A A111G C150G C169G = no (0)
• A120U A145U C150A U176C = yes (1)
• C82G A120U A145C C150G U176G = no (0)
• C82G A111G A145U C150G = yes (1)
• C82A A111U A120C A145C C150U C169A U176C = yes (1)
• C82U A111G A120C C150U = yes (1)
• C82A A145G C169G U176G = no (0)
• C82G A111G A120C A145G C150A U176C = yes (1)
• C82U A111U A120C C169G U176A = yes (1)
• C82G A111G A145U C150G C169A U176G = no (0)
• C82A A111C A120C A145U C150G C169U U176G = no (0)
• A111C C150A C169U = yes (1)
• C82A A111C A120G C169A = yes (1)
• A111U A120U A145C C150U C169G U176C = no (0)
• A111G A120G A145G C150U C169A U176A = yes (1)
• C82U A111C C150U C169U U176A = yes (1)
• C82G A111U A120U C150A C169U = no (0)

Each recorded value in this set is attributed to the RNAGym collection of RNA variant scans (doi:10.1093/molbev/msab373).
